This collection of values is drawn from patent US20240199745A1.

target: human EGFR (huEGFR) over-expressed on mcl-1-/- mouse embryonic fibroblasts (human, UniProt P00533 25-1210); experiment: cell-based or functional assay
Lab note - cut at 20 nM for huEGFR+ mcl-1-/- MEF EC50: Yes if strictly below, No if not.

binder: AbA-CZ (antibody, human IgG1, kappa, V domains shown, synthon CZ on reduced interchain cysteines; average DAR 3.2 per ADC) VH: EVQLQESGPGLVKPSQTLSLTCTVSGYSISRDFAWNWIRQPPGKGLEWMGYISYNGNTRYQPSLKSRITISRDTSKNQFFLKLNSVTAADTATYYCVTASRGFPYWGQGTLVTVSS VL: DIQMTQSPSSMSVSVGDRVTITCHSSQDINSNIGWLQQKPGKSFKGLIYHGTNLDDGVPSRFSGSGSGTDYTLTISSLQPEDFATYYCVQYAQFPWTFGGGTKLEIKR
assigned.class: Yes
--
binder: AbG-XW (antibody, human IgG1, kappa, V domains shown, synthon XW on reduced interchain cysteines; average DAR 3.7 per ADC) VH: EVQLQESGPGLVKPSQTLSLTCTVSGYSISNDFAWNWIRQLPGKGLEWMGYISYKGNTRYQPSLKSRITISRDTSKNQFFLKLNSVTAADTATYYCVTASRGLPYWGQGTLVTVSS VL: DIQMTQSPSSMSVSVGDRVTITCHSSQDITYNIGWLQQKPGKSFKGLIYHGANLDDGVPSRFSGSGSGTDYTLTISSLQPEDFATYYCVQYDEFPWTFGGGTKLEIKR
assigned.class: Yes
--
binder: AbA-AAD (antibody, human IgG1, kappa, V domains shown, synthon AAD on reduced interchain cysteines; average DAR 3.3 per ADC) VH: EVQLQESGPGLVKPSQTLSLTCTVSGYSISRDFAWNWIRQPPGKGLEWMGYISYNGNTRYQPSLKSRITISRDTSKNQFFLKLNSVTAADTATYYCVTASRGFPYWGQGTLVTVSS VL: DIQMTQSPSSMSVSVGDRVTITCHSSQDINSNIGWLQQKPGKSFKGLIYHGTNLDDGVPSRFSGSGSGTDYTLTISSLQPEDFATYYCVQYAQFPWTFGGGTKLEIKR
assigned.class: No
--
binder: AbA-ZT (antibody, human IgG1, kappa, V domains shown, synthon ZT on reduced interchain cysteines; average DAR 2 per ADC) VH: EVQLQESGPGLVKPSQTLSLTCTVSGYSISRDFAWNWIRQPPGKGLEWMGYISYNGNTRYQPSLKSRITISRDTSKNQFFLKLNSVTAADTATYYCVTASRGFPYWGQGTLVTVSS VL: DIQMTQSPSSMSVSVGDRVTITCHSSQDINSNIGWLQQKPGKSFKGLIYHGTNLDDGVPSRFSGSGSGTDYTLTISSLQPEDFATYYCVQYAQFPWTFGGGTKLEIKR
assigned.class: No
--
binder: AbA-AAA (antibody, human IgG1, kappa, V domains shown, synthon AAA on reduced interchain cysteines; average DAR 2 per ADC) VH: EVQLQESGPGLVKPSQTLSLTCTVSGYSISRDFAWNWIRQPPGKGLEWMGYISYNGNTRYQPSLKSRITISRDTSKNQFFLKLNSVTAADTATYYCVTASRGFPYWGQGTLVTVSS VL: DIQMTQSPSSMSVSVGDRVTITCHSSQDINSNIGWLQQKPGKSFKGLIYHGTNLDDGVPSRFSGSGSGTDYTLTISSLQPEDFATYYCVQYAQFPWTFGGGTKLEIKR
assigned.class: No

Data request: Lab log: compare recorded huEGFR+ mcl-1-/- MEF EC50 with 20 nM; is it strictly lower for AbK-KZ (antibody, human IgG1, kappa, V domains shown, synthon KZ on reduced interchain cysteines; average DAR 2.3 per ADC) VH: EVQLQESGPGLVKPSQTLSLTCTVSGYSISRDFAWNWIRQPPGKGLEWMGYISYNGNTRYQPSLKSRITISRDTSKNQFFLKLNSVTAADTATYYCVTASRGFPWWGQGTLVTVSS VL: DIQMTQSPSSMSVSVGDRVTITCHSSQDITYNVGWLQQKPGKSFKGLIYHGSNLDHGVPSRFSGSGSGTDYTLTISSLQPEDFATYYCVQYDDFPWTFGGGTKLEIKR ?
Data returned: No

Data request: Try AbK-ZT (antibody, human IgG1, kappa, V domains shown, synthon ZT on reduced interchain cysteines; average DAR 1.3 per ADC) VH: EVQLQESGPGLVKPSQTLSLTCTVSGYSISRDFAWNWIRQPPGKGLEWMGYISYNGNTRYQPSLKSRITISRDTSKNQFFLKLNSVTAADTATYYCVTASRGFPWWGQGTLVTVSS VL: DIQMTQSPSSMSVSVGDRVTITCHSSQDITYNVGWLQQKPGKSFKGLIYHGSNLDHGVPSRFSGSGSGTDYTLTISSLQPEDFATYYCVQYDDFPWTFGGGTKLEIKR next.
Data returned: Yes

Data request: Try AbK-TV (antibody, human IgG1, kappa, V domains shown, synthon TV on reduced interchain cysteines; average DAR 2.4 per ADC) VH: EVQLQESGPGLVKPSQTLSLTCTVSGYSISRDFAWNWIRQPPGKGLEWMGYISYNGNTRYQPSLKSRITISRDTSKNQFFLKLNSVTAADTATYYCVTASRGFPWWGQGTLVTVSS VL: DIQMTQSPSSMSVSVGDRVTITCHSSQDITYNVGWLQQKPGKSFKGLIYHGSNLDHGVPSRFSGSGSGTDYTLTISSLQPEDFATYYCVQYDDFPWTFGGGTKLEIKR next.
Data returned: Yes

Data request: Try AbG-LB (antibody, human IgG1, kappa, V domains shown, synthon LB on reduced interchain cysteines; average DAR 2.5 per ADC) VH: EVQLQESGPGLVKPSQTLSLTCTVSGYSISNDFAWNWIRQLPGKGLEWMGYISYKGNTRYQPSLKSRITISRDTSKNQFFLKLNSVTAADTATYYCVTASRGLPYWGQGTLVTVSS VL: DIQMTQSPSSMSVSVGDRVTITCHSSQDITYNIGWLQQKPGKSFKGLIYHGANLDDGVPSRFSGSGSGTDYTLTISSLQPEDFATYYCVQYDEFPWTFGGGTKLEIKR next.
Data returned: No

Data request: Try AbK-YY (antibody, human IgG1, kappa, V domains shown, synthon YY on reduced interchain cysteines; average DAR 1.7 per ADC) VH: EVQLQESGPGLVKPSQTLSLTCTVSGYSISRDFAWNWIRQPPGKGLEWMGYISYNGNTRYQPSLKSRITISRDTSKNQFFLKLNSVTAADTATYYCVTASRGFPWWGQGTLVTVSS VL: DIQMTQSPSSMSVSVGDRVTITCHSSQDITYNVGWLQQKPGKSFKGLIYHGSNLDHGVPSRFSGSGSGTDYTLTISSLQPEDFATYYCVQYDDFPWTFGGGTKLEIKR next.
Data returned: No
